# Test system: CD4+ T cells
# MEASUREMENT NOTES: Exogenous autologous healthy donor restimulation assay, TNFα and IFNγ production by CD4+ T cells
# Type: cell-based, human
# Set-up: unit not given here
# CONDITION INFO: maximum CD4+ T-cell response, donor independent; peptide pool 10 μg/mL, healthy donors
Each entry gets n if its Frequency (TNFα+ IFNγ+ CD4 T cells) stays under 0.02, and y if its Frequency (TNFα+ IFNγ+ CD4 T cells) is 0.02 or above.

SEQUENCE DATA: GNVLVRYVSLYVYYILLN [AS97, alternative splicing, ANKRD28]
GROUP LABEL: y
//
SEQUENCE DATA: YGVYVINQKGHSGCIWSMDGEGRLETAWPVWKRGRCPGKRR [AS15, alternative splicing, B4GALT2]
GROUP LABEL: y
//
SEQUENCE DATA: VEDEEKKEAGTHFIHLTGTTVSAGVPEEMPATTLRREVF [AS108, alternative splicing, ACIN1]
GROUP LABEL: y
//
SEQUENCE DATA: RHQENVHTVLVHGKVKGLFYI [AS125, alternative splicing, PRDM5]
GROUP LABEL: y
//
SEQUENCE DATA: WTRPEKQELNSSCCSLIL [AS120, alternative splicing, NCAM1]
GROUP LABEL: n
//
SEQUENCE DATA: SQKQPALKCLLRNNRP [AS84, alternative splicing, ANKRD36]
GROUP LABEL: n
//
SEQUENCE DATA: GEVKWSVGSRTSLLL [FUS38, gene fusion CD79B-> GH1]
GROUP LABEL: n
//
SEQUENCE DATA: GFFETEMAVPFFSRKIRKVRRAIMKWTFCCYFY [AS118, alternative splicing, IARS]
GROUP LABEL: y
